# target or test system: LRRK2 (Homo sapiens (Human), UniProt Q5S007, G2019S)
# Sequence (Q5S007 970-2527 G2019S limits assumed): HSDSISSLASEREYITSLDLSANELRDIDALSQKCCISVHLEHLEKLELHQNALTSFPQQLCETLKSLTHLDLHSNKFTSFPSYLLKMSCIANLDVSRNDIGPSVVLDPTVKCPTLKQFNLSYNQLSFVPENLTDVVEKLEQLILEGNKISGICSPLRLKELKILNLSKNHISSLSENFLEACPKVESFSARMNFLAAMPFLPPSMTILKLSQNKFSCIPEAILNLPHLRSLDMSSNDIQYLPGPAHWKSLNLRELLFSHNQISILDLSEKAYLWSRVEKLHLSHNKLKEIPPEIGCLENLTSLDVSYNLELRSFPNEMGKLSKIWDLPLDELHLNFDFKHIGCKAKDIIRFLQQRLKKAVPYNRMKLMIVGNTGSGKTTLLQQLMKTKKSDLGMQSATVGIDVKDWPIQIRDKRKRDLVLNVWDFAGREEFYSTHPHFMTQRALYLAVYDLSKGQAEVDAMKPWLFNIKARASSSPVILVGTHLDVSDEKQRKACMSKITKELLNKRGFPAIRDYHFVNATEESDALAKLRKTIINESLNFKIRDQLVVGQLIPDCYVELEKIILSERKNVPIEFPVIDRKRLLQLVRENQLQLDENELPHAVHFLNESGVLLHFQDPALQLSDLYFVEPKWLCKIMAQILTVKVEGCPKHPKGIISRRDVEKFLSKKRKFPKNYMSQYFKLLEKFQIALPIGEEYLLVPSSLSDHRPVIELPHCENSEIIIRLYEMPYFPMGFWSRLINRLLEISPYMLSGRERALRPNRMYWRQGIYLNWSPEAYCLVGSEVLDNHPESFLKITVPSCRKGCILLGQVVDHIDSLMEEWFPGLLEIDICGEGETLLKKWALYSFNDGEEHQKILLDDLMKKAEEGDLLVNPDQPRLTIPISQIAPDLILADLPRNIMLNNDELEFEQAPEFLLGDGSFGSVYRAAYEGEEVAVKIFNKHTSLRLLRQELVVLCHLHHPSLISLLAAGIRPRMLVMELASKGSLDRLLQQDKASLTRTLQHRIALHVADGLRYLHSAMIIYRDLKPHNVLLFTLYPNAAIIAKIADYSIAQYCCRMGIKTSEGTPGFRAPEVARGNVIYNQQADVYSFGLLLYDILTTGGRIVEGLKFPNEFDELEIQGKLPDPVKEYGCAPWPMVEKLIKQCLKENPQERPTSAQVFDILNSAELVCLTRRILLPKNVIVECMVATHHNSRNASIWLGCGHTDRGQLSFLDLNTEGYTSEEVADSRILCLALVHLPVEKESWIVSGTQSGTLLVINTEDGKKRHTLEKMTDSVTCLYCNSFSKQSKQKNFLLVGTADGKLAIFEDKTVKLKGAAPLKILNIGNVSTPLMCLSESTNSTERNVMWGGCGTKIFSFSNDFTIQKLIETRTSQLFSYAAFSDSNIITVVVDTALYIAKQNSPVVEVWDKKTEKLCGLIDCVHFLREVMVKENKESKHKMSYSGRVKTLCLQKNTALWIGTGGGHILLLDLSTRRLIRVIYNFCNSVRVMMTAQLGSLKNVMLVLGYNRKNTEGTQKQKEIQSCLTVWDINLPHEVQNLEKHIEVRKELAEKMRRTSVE
# assay protocol: In Vitro LRRK2 LabChip Assay
# Type: biochemical
# experimental conditions: Table 4
experimental endpoint: Ki (nM)

The cases that follow already have their Ki on record.
CNc1nc(Nc2ccc(C(=O)N3CCN(C4COC4)CC3)cc2OC)ncc1Br | 8
CNc1nc(Nc2ccc(C(=O)N3CCCC3C)cc2OC)ncc1Cl (centres unmarked) | 3.8

P: CNc1nc(Nc2ccc(C(=O)N3CCOCC3)cc2OC)ncc1C(F)(F)F
Q: CNc1nc(Nc2cc(OC)c(C(=O)N3CCCOCC3)cc2Cl)ncc1Cl
R: CNc1nc(Nc2cc(OC)c(C(=O)N3C[C@@H](C)N[C@@H](C)C3)cc2Cl)ncc1Cl
S: CNc1nc(Nc2ccc(C(=O)N3CCOCC3)cc2OC(C)C)ncc1C(F)(F)F
Put the items in order so that reported Ki rises from first to last. Put the labels in the order asked and list them. P, Q, S, R
(P: 2.7 nM, Q: 5.7 nM, S: 9.4 nM, R: 33.3 nM)

a: CNC(=O)c1cc(OC)c(Nc2ncc(C(F)(F)F)c(NC)n2)cc1F
b: CNc1nc(Nc2cc(OC)c(C(=O)NC3COC3)cc2Cl)ncc1Cl
Compare reported Ki values for a and b . Which is lower? Respond using the label that marks the chosen record. a

A: CCN(C(=O)c1ccc(Nc2ncc(C#N)c(NC)n2)c(OC)c1)C(C)C
B: CNc1nc(Nc2cc(F)c(C(=O)N3CCOCC3)cc2OC)ncc1C(F)(F)F
C: CNc1nc(Nc2cc(OC)c(C(=O)N3CCNCC3)cc2Cl)ncc1Cl
# desc sort on Ki across 3 compounds Put the labels in the order asked and list them. C, A, B
(C: 8.9 nM, A: 5.4 nM, B: 2.9 nM)
